Source of measurements: patent US20070265270A1

Quick reference: IC50 of the listed items.
# system: UniProtKB Q8CA95
# Sequence (Q8CA95 446-763 limits assumed): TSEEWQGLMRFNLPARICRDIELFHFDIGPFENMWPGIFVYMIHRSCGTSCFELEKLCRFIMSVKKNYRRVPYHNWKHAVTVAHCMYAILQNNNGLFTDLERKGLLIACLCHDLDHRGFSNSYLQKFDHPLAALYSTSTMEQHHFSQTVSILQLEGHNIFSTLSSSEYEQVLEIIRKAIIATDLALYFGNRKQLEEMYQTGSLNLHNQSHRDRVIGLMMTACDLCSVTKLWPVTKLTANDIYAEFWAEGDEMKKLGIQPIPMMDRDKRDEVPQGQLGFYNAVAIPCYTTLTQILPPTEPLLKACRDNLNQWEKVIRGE
# protocol.text: mPDE10A7 enzyme inhibition (IMAP fluorescence polarization)
# Assay type: biochemical
# condition.description: Table 3; fluorescein labeled cAMP or cGMP substrate
measured.endpoint: IC50 (nM)

[[record]]
compound = "COc1cc2nncc(N3CCNC(c4cccc5ccccc45)C3)c2cc1OC (racemic) [Cpd 103]"
value_units = "nM"
observed_result = 12

[[record]]
compound = "CCN1CCN(c2cccc3c2cnn3-c2cnnc3cc(OC)c(OC)cc23)CC1 [Cpd 48]"
value_units = "nM"
observed_result = 28.8

[[record]]
compound = "COc1cc2nncc(N3CCOC(c4ccccc4C)C3)c2cc1OC (racemic) [Cpd 96]"
value_units = "nM"
observed_result = 14.1

[[record]]
compound = "COc1cc2nncc(N3CCCC(c4nc(C)no4)C3)c2cc1OC (stereo not drawn) [Cpd 56]"
value_units = "nM"
observed_result = 190

[[record]]
compound = "COc1ccc2cc([C@@H]3CN(c4cnnc5cc(OC)c(OC)cc45)CCN3)ccc2c1 [Cpd 111]"
value_units = "nM"
observed_result = 10.3

[[record]]
compound = "COc1cc2nncc(N3CCO[C@@H](c4ccc(C)cc4F)C3)c2cc1OC [Cpd 110]"
value_units = "nM"
observed_result = 2.86

[[record]]
compound = "COc1cc2nncc(-n3nc(C(=O)NC4CC4)c4ccccc43)c2cc1OC [Cpd 3]"
value_units = "nM"
observed_result = 141

[[record]]
compound = "COc1cc2nncc(N3CCNC(c4cc(OCc5ccccc5)cc(OCc5ccccc5)c4)C3)c2cc1OC (racemic) [Cpd 118]"
value_units = "nM"
observed_result = 160

[[record]]
compound = "COc1cc2nncc(N3CCCC(n4ccccc4=O)C3)c2cc1OC (stereo not drawn) [Cpd 51]"
value_units = "nM"
observed_result = 152

